Recorded values, source patent US9045461B2.

- target of assay: sRAGE binding to S100b (Homo sapiens, UniProt Q15109)
- Construct: extracellular domain can be isolated by proteolysis of RAGE to generate soluble RAGE (sRAGE) comprised of the V and C domains
- Sequence (Q15109 23-342 limits assumed): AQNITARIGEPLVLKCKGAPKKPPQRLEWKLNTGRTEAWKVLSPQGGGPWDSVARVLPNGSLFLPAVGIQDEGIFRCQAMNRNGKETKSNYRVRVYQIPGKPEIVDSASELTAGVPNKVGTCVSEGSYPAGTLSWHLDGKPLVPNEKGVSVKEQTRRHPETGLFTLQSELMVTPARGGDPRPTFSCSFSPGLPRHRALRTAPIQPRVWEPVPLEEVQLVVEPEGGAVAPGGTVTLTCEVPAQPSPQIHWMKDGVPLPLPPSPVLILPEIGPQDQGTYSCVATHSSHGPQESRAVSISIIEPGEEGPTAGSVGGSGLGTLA
- assay notes: RAGE binding assay (ELISA), S100b as the RAGE ligand
- run conditions: compounds tested in hydrochloride salt form, concentration at which 50% signal has been inhibited
pIC50: −log10 of the molar value. Where a name gives a salt, the structure may show the parent alone.
Each entry below carries its reported pIC50.
quantity kind: pIC50

{"compound": "CCCCc1nnc(OC2CCN(C)CC2)cc1-c1ccc(OC2CCCCC2)c(NC(C)=O)c1 [Example 62, dihydrochloride]", "quantity kind": "pIC50", "numeric value": 5.44}
{"compound": "CCCCc1nnc(OC2CCN(CCC(=O)N(C)C)CC2)cc1-c1ccc(OC2CCCCC2)cc1 [Example 16, dihydrochloride]", "quantity kind": "pIC50", "numeric value": 5.66}
{"compound": "CCCCc1nnc(OC2CCN(C)CC2)cc1-c1ccc(OCc2cccnn2)cc1 [Example 53, trihydrochloride]", "quantity kind": "pIC50", "numeric value": 5.60}
